Measured GI50 by item
tested on: MDA-MB-435; assay: NCI tumour cell line growth inhibition, 48 h
Activity calls are given as the source filed them. No stated cut-off is given here; in the data, active = GI50 up to about 1.1 µM and inactive = higher.

Some molecules with known GI50 results, for comparison:
INSERT INTO assay_data (molecule, measurementtarget, observedresult) VALUES
  ('Cc1cn(C2OC(CO)C(O)C2F)c(=O)[nH]c1=O (stereo not given)', 'MDA-MB-435', '> 100 µM (inactive)'),
  ('CC(=O)OC[C@@]12Cc3ccc(C)c(O)c3[C@]1(C)[C@@H](OC(C)=O)[C@]1(O)[C@H]([C@@H](OC(=O)c3ccccc3)[C@@H](C)[C@H]1OC(C)=O)[C@H]2OC(C)=O', 'MDA-MB-435', '> 50 µM (inactive)'),
  ('COc1cc(OCCN(C)C)c2[nH]c(C(=O)N3CC(CCl)c4ccc(N)cc43)cc2c1 (stereo not given)', 'MDA-MB-435', '0.0475 µM (active)');

Query :: Return GI50 for the following molecule: NC1CC(Cl)c2c(Cl)sc(Cl)c21 (stereo not given)
Result :: > 100 µM (inactive)

Query :: Return GI50 for the following molecule: `O=C(NNC(=O)c1ccncc1)c1ccncc1`
Result :: > 100 µM (inactive)
